Attribution: patent US20190055322A1

Hi there, I'd appreciate the recorded koff for every entry that follows.
biological target: recombinant PcrV protein (rPcrV), strain PAO1, amino acid residues 1-294, C-terminal His6 (Pseudomonas aeruginosa strain PAO1); test: SPR ProteOn, periplasmic extract on immobilised rPcrV
Form entry: value (s⁻¹) — number only.

Task: Dear colleague, please send me the reported koff for Nanobody 6B05 (VHH, also called 06B05) VHH: EVQLVESGGGLVQPGGSLRLSCAASGSIFSINTMGWYRQAPGKQRELVSTITSNLVPHYADSVQGRFTISRDNARNTVYLQMNSLKPQDTAHYYCNAWARSSGATPYTNYWGQGTLVTVSS when you can.
Result: 0.00018

Task: Dear colleague, please send me the reported koff for Nanobody 3B11 (VHH) VHH: EVQLVESGGGLVQAGGSLRLSCAASGFTFDDYVIGWFRQAPGKEREGVSCISRLDGRTYYTDSVKGRFTISSDNAKNTVYLQMNSLKPEDTAVYYCALEPRYTGDYYPVHPELYDYWGQGTQVTVSS when you can.
Result: 0.0027

Task: Dear colleague, please send me the reported koff for Nanobody 12B02 (VHH) VHH: EVQLVESGGGLVQPGGSLRLSCAASGFSLGVFAIGWFRQAPGKEREGVSCIDSSDGRTTYADSVKGRFTISRDNAKNTVYLQMNSLKPEDTAVYYCATDIETDVCSGAGWGFWGQGTQVTVSS when you can.
Result: 4.4e-05

Task: Dear colleague, please send me the reported koff for Nanobody 4C03 (VHH) VHH: EVQLVESGGGLVQAGGSLRLSCVISASTVRNYDMGWFRQAPGKEREFVAAIDWSGGSTRYADSVKGRFTVSRDNAKNTVYLQMNSLKPEDTAVYYCVAAGFYNNYLRTAPNDWNYWGQGTLVTVSS when you can.
Result: 0.0068

Task: Dear colleague, please send me the reported koff for Nanobody 4G10 (VHH) VHH: EVQLVESGGGLVQAGGSLRLSCVISEDGVRNYDMGWFRQAPGKEREFVATINWSGGSTNYADSVKGRFTVSRDNAKNTMYLQMDSLKPEDTAVYYCVAAGFYNNYLRTAPNDWNDWGQGTQVTVSS when you can.
Result: 0.00013

Task: Dear colleague, please send me the reported koff for Nanobody 2G09 (VHH) VHH: EVQLVESGGGLVQPGGSLRLSCAASGSFGDNYELYAMTWFRQAPGERRDFVASVTGDGSTSYADSVKDRFTISRDNAKKLMYLQMNSLKPEDTAVYYCRLLNYWGQGTLVTVSS when you can.
Result: 0.001

Task: Dear colleague, please send me the reported koff for Nanobody 5E02 (VHH) VHH: EVQLVESGGGLVQPGGSLRLSCAASGITLDSIAICWFRQAPGKEREGVSCSRGSDGSTYYADSVKGRFTISRVNAKNTVYLQMNSLKPEDTAVYYCAAAPSIFYSGGYFPSGMDYWGKGTQVTVSS when you can.
Result: 0.00057
